System: ES8 (Ewing's Sarcoma)
assayName: Bliss excess, mean over the matrix (fraction); higher = more synergy;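 note: after 72 h of two-drug dosing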
quantityMeasured: Bliss excess
Could you keep your reply to the number by itself?

Sample answers from the record:
COc1cccc(OCCCN)c1-c1cc(Nc2cnc(C#N)cn2)n[nH]1 [Prexasertib] + C[C@@H]1COCCN1C2=NC(=NC(=C2)C3(CC3)[S@](=N)(=O)C)C4=C5C=CNC5=NC=C4 [AZD6738] (first compound max 1 µM, 7x7, partner max 10 µM) ... -0.0371
NC1(C(=O)N[C@@H](CCO)c2ccc(Cl)cc2)CCN(c2ncnc3[nH]ccc23)CC1 [Capivasertib] + CCN(CCO)CCCOc1ccc2c(Nc3cc(CC(=O)Nc4cccc(F)c4)[nH]n3)ncnc2c1 [AZD2811] (first compound max 10 µM, 7x7, partner max 1 µM) ... -0.0394
C[C@@H](Oc1cc(-c2cnn(C3CCNCC3)c2)cnc1N)c1c(Cl)ccc(F)c1Cl [Crizotinib] + CC1=C(C(=CC=C1)Cl)NC(=O)C2=CN=C(S2)NC3=CC(=NC(=N3)C)N4CCN(CC4)CCO [Dasatinib] (first compound max 10 µM, 7x7, partner max 2 µM) ... 0.0154

Consider the additional compound presented here.
Complete the entry with Bliss excess for CS(=O)(=O)CCNCc1ccc(-c2ccc3ncnc(Nc4ccc(OCc5cccc(F)c5)c(Cl)c4)c3c2)o1 [Lapatinib] + C[C@@H](Oc1cc(-c2cnn(C3CCNCC3)c2)cnc1N)c1c(Cl)ccc(F)c1Cl [Crizotinib] (first compound max 10 µM, 7x7, partner max 10 µM) -0.0424

* * *

List of Bliss excess values.
System: KYSE-180 (Esophageal Squamous Cell Carcinoma)
assayName: Bliss excess, mean over the matrix (fraction); higher = more synergy
Could you respond with only the numeric value?

CN(CCO)CC[C@H](CSc1ccccc1)Nc1ccc(S(=O)(=O)NC(=O)c2ccc(N3CCC([C@@H](O)c4ccccc4-c4ccc(Cl)cc4)CC3)cc2)cc1S(=O)(=O)C(F)(F)F [AZD4320] + Cn1cnc2c(F)c(Nc3ccc(Br)cc3Cl)c(C(=O)NOCCO)cc21 [Selumetinib] (first compound max 1 µM, 7x7, partner max 3 µM) ... 0.0148
CC1(C)CCC(CN2CCN(c3ccc(C(=O)NS(=O)(=O)c4ccc(NCC5CCOCC5)c([N+](=O)[O-])c4)c(Oc4cnc5[nH]ccc5c4)c3)CC2)=C(c2ccc(Cl)cc2)C1 [Venetoclax] + CCN(CCO)CCCOc1ccc2c(Nc3cc(CC(=O)Nc4cccc(F)c4)[nH]n3)ncnc2c1 [AZD2811] (first compound max 1 µM, 7x7, partner max 1 µM) ... 0.0453
Cn1cnc2c(F)c(Nc3ccc(Br)cc3Cl)c(C(=O)NOCCO)cc21 [Selumetinib] + CC(C)n1c(=O)n(C)c2cnc3cc(F)c(-c4ccc(OCCCN5CCCCC5)nc4)cc3c21 [AZD1390] (first compound max 10 µM, 7x7, partner max 0.3 µM) ... -0.042
Cc1c2c(nn1C)CSCc1cc(n(C)n1)CSc1cc(c3ccccc3c1)OCCCc1c(C(=O)O)n(C)c3c-2c(Cl)ccc13 [AZD5991] + CN(C)CCCOc1ccc(-c2ccc3ncc4c(c3c2)n(C2CCOCC2)c(=O)n4C)cn1 [AZD0156] (first compound max 1 µM, 7x7, partner max 1 µM) ... 0.0286
CN(C)CCCOc1ccc(-c2ccc3ncc4c(c3c2)n(C2CCOCC2)c(=O)n4C)cn1 [AZD0156] + CCN(CCO)CCCOc1ccc2c(Nc3cc(CC(=O)Nc4cccc(F)c4)[nH]n3)ncnc2c1 [AZD2811] (first compound max 1 µM, 7x7, partner max 1 µM) ... -0.0153
NC1(C(=O)N[C@@H](CCO)c2ccc(Cl)cc2)CCN(c2ncnc3[nH]ccc23)CC1 [Capivasertib] + COc1nnc2ccc(N3CCC(c4ccc(OCCN5CCN(C)C(=O)[C@H]5C)cc4)CC3)nn12 [AZD5153] (first compound max 10 µM, 7x7, partner max 1 µM) ... 0.0387

# next compound below
Report measured Bliss excess on KYSE-180 (Esophageal Squamous Cell Carcinoma); entry: COc1nnc2ccc(N3CCC(c4ccc(OCCN5CCN(C)C(=O)[C@H]5C)cc4)CC3)nn12 [AZD5153] + Cc1c2c(nn1C)CSCc1cc(n(C)n1)CSc1cc(c3ccccc3c1)OCCCc1c(C(=O)O)n(C)c3c-2c(Cl)ccc13 [AZD5991] (first compound max 1 µM, 7x7, partner max 1 µM) -0.0033
